Molecular target: human Y4 receptor (human, UniProt P50391 1-375)
Sequence (P50391 whole entry): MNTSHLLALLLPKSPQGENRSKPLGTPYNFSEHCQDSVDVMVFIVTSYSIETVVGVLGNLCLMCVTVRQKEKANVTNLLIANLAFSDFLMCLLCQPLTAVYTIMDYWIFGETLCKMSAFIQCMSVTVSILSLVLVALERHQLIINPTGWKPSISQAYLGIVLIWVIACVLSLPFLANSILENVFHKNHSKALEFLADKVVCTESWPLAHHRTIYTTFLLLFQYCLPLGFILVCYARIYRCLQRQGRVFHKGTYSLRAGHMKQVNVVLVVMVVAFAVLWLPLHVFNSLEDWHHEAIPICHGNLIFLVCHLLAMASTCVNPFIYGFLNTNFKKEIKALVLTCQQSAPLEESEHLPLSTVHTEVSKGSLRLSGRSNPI
Experiment: 125I-PP displacement
Catalogue of pIC50 values
Formally, pIC50 is defined as -log10 of the concentration c, with c in mol/L.

{"columns": ["BINDER", "ENDPOINT LABEL", "READOUT VALUE"],
 "data": [
  ["PAPLEPSYPGDNATPEQMAKYAAELRRYINLLTRPRY [4058153]", "pIC50", 9.97],
  ["HAPLEPEYPGDNATPEEMAKYAAELRRYINKLTRPRY [4058074]", "pIC50", 9.94]
]}

// pIC50 lookup, binder = GAPLEPKYPGDNATPEQMAKYAAELRRYINKLTRPRY [4058160] , result: 10.28

Record APLEPSYPGDNATPEQMAKYAAELRRYINKLTRPRY [4058147] . Reported pIC50: 10.24

Entry PAPLEPEYPGDNATPEQMAKYAAELRRYINLLTRPRY [4058155] — recorded pIC50 = 9.90

YAPLEPEYPGDNATPEEMAKYAAELRRYINKLTRPRY [4058075] has a reported pIC50 of 10.24

Per the records, this binder ( PAPLEIVYPGDNATPEQMARYYSELRRYINKLTRPRY [4058285] ) has pIC50 equal to 9.68

Entry GAPLEPSYPGDNATPEQMAKYAAELRRYINKLTRPRY [4058149] ; pIC50 = 10.15

// pIC50 lookup, binder = AAPLEPVYPGDNATPEEMARYYSELRRYINKLTRPRY [4058295] , result: 10.23

Briefly, pIC50 measured for PAPLEPKYPGDNATPEQMAKYAAELRRYINLLTRPRY [4058169] : 10.00

Looking up YAPLEPKYPGDNATPEQMAKYAAELRRYINKLTRPRY [4058164] , I see its pIC50 listed as 10.24

// pIC50 value for PAPLEPVYPGDNATPEQLARYYSELRRYINKLTRPRY [4058297] : 10.37

get_value(item= PAPLEPTYPGDNATPEQMARYAAALRRYINKLTRPRY [4058070] , readout=pIC50) returns 10.52

// GAPLEPKYPGDNATPEQLAKYAAELRRYINKLTRPRY [4058167] : pIC50 value = 10.22

Sample HAPLEPKYPGDNATPEQMAKYAAELRRYINKLTRPRY [4058163] ; pIC50 observed: 10.06

src = patent US20100279930A1
